Biological target: human recombinant mGluR5 (Homo sapiens, UniProt P41594)
Construct: expressed in transfected cells; host or cells: HEK 293 cell line, cultured with tetracycline, hygromycin and geneticin; tetracycline is withdrawn 3-7 days before the assay
Sequence (P41594 21-1212): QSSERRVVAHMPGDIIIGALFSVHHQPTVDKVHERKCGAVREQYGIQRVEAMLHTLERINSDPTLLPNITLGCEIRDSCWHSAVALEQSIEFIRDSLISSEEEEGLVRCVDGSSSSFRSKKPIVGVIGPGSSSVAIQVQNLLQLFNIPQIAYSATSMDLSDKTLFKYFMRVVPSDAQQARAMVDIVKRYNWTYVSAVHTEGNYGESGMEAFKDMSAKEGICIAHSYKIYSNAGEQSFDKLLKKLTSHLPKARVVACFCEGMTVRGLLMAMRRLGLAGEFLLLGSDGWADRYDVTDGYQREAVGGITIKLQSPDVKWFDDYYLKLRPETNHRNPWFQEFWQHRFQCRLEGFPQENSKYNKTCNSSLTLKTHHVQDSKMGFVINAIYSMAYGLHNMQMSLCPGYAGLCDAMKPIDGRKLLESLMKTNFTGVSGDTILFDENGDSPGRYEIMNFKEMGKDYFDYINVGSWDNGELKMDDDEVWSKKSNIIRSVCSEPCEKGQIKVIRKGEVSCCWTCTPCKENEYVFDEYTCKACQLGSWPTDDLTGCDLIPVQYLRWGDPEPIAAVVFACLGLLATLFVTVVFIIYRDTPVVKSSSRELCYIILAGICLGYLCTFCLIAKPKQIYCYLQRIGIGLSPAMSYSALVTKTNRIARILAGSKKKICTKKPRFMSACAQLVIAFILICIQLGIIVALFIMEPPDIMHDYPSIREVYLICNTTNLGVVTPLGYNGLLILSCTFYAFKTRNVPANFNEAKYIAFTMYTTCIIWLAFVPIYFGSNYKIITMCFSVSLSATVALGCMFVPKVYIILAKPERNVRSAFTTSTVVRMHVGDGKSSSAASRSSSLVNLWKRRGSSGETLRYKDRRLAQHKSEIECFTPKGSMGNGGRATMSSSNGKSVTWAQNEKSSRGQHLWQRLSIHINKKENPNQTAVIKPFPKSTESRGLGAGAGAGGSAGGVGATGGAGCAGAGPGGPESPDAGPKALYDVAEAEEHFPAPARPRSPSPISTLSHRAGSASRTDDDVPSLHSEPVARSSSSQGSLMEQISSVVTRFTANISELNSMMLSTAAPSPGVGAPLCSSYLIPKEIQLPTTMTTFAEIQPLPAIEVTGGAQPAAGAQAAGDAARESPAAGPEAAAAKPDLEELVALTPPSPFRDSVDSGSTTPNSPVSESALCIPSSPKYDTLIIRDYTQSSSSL
Test: positive modulation of mGluR5, calcium based FLIPR assay
Assay type: cell-based
Conditions: EC50 of the modulation; HEK 293 cell line expressing human recombinant mGluR5; peak height of Ca fluorescence signal after glutamate at approx. 5% basal stimulation; read-out: EC50
measurement-type: EC50 (nM)
Give the quantity in nM, number only.

{"molecule": "Cc1noc(C2CCN(C(=O)Cn3nc(-c4ccc(F)cc4)nc3-c3ccc(F)cc3)CC2)n1 [Example 7.02.61.]", "EC50, nM": 511}
{"molecule": "O=C(Cn1nc(-c2ccc(F)cc2)nc1-c1ccc(F)cc1)N1CCc2c(F)ccc(F)c2C1", "EC50, nM": 1830}
{"molecule": "CN1C(=O)N(C2CCN(C(=O)Cn3nc(-c4ccc(F)cc4)nc3-c3ccc(F)cc3)CC2)Cc2ccccc21", "EC50, nM": 1860}

// switching to the query molecule
Q) Print human recombinant mGluR5 (Homo sapiens, UniProt P41594) EC50 for "COc1cccc(N2CCN(C(=O)Cn3nc(-c4ccc(F)c(C)c4)nc3C3CCCC3)CC2=O)c1" .
A) 679

====

Biological target: human recombinant mGluR5 (Homo sapiens, UniProt P41594)
Construct: expressed in transfected cells; host or cells: HEK 293 cell line, cultured with tetracycline, hygromycin and geneticin; tetracycline is withdrawn 3-7 days before the assay
Assay: positive modulation of mGluR5, calcium based FLIPR assay
Format: cell-based
Conditions: EC50 of the modulation; HEK 293 cell line expressing human recombinant mGluR5; peak height of Ca fluorescence signal after glutamate at approx. 5% basal stimulation; read-out: EC50
Entries and their measured pEC50 follow.
pEC50 is defined as minus the log10 of a concentration measured in mol/L.

# count of solved cases: 6
{"compound-structure-string": "COc1cc(-c2nc(-c3ccc(F)cc3)n(CC(=O)N3CCc4nc(C)sc4CC3)n2)ccc1F", "target-entity": "human recombinant mGluR5 (Homo sapiens, UniProt P41594)", "recorded-measurement": 7.15}
{"compound-structure-string": "O=C(Cn1nc(-c2ccc(F)cc2)nc1-c1ccc(F)cc1)N1Cc2nc(-c3ccccc3)sc2C1", "target-entity": "human recombinant mGluR5 (Homo sapiens, UniProt P41594)", "recorded-measurement": 6.00}
{"compound-structure-string": "CC(C)c1nnc(N2CCN(C(=O)Cn3nc(-c4ccc(F)cc4)nc3-c3ccc(F)cc3)CC2)o1", "target-entity": "human recombinant mGluR5 (Homo sapiens, UniProt P41594)", "recorded-measurement": 6.86}
{"compound-structure-string": "O=C(Cn1nc(-c2ccc(F)cc2)nc1-c1ccc(F)cc1)N1CC=C(c2ccccn2)CC1", "target-entity": "human recombinant mGluR5 (Homo sapiens, UniProt P41594)", "recorded-measurement": 6.97}
{"compound-structure-string": "COc1ccc2c(n1)CCN(C(=O)Cn1nc(-c3ccc(F)cc3)nc1-c1ccc(F)cc1)CC2", "target-entity": "human recombinant mGluR5 (Homo sapiens, UniProt P41594)", "recorded-measurement": 6.73}
{"compound-structure-string": "O=C(Cn1nc(-c2ccc(F)cc2)nc1-c1ccc(F)cc1)N1CCc2ncsc2C1", "target-entity": "human recombinant mGluR5 (Homo sapiens, UniProt P41594)", "recorded-measurement": 5.79}

Q) Provide only the value of recorded pEC50 for "Cc1cnc(C2CCN(C(=O)Cn3nc(-c4ccc(F)cc4)nc3-c3ccc(F)cc3)CC2)o1"
A) 6.77

====

Molecular target: human recombinant mGluR5 (Homo sapiens)
Construct: expressed in transfected cells; host or cells: HEK 293 cell line, cultured with tetracycline, hygromycin and geneticin; tetracycline is withdrawn 3-7 days before the assay
Assay: positive modulation of mGluR5, calcium based FLIPR assay
Assay type: cell-based
Settings: EC50 of the modulation; HEK 293 cell line expressing human recombinant mGluR5; peak height of Ca fluorescence signal after glutamate at approx. 5% basal stimulation; read-out: EC50
Listed here: items and their measured pEC50.
// pEC50 is dimensionless: -log10 of concentration (M)

# example entries with known answers
{"compound": "O=C(Cn1nc(-c2ccc(F)cc2)nc1-c1ccc(F)cc1)N1CCN(c2cccc(F)c2)C(=O)C1 [Example 7.02.13.]", "recorded-measurement": 6.26}
{"compound": "COc1ccc(-c2nc(-c3ccc(F)cc3)n(CC(=O)N3CCc4nc(N)sc4CC3)n2)cc1 [Example 7.03.055.]", "recorded-measurement": 7.00}
{"compound": "O=C(Cn1nc(-c2ccc(F)cc2)nc1-c1ccc(F)cc1)N1CCC(Oc2ccccc2)CC1 [Example 7.03.005.]", "recorded-measurement": 6.02}
{"compound": "Cc1nnc(C2CCN(C(=O)Cn3nc(-c4ccc(F)cc4)nc3-c3ccc(F)cc3)CC2)o1 [Example 7.02.59.]", "recorded-measurement": 6.35}
{"compound": "Cc1nc2c(s1)CCN(C(=O)Cn1nc(-c3ccc(F)c(C)c3)nc1C1CCCCC1C)CC2 (stereo not drawn) [Example 7.03.093.]", "recorded-measurement": 6.36}

Q) Param request: pEC50 | system human recombinant mGluR5 (Homo sapiens) | item O=C(Cn1nc(-c2ccc(F)cc2)nc1-c1ccc(F)cc1)N1CCN(c2cc(F)ccn2)C(=O)C1 [Example 7.03.016.]
A) 7.00

Q) Fill: pEC50 (human recombinant mGluR5 (Homo sapiens)) for this compound COc1ccnc(C2=CCN(C(=O)Cn3nc(-c4ccc(F)c(C)c4)nc3C(C)C)CC2)c1 [Example 7.03.079.]
A) 6.26

Q) Fetch value of pEC50 on human recombinant mGluR5 (Homo sapiens) for O=C(Cn1nc(-c2ccc(F)cc2)nc1-c1ccc(F)cc1)N1CCc2ncnc(-c3ccccc3)c2CC1 [Example 7.02.37.] .
A) 6.15

Q) Name the recorded pEC50 of Cc1ccnc(C2=CCN(C(=O)Cn3nc(-c4ccc(F)c(C)c4)nc3C(C)C)CC2)c1 [Example 7.03.078.] , assay system human recombinant mGluR5 (Homo sapiens).
A) 6.10

Q) Give pEC50; test system human recombinant mGluR5 (Homo sapiens); compound Cc1cc(-c2nc(-c3ccccc3)n(CC(=O)N3CCc4ncnc(-c5ccccc5)c4CC3)n2)ccc1F [Example 7.02.80.]
A) 6.49

Q) Specify pEC50 for COC(=O)c1ccc2c(c1)CCN(C(=O)Cn1nc(-c3ccc(F)cc3)nc1-c1ccc(F)cc1)CC2 [Example 7.02.11.] , system human recombinant mGluR5 (Homo sapiens).
A) 6.42

Q) Tell me its pEC50 on human recombinant mGluR5 (Homo sapiens): O=C(Cn1nc(-c2ccc(F)cc2)nc1-c1ccc(F)cc1)N1CCN(c2noc3ccccc23)CC1 [Example 7.02.73.]
A) 6.83

Q) Give pEC50; test system human recombinant mGluR5 (Homo sapiens); compound Cc1nc2c(o1)CN(C(=O)Cn1nc(-c3ccc(F)cc3)nc1-c1ccc(F)cc1)C2 [Example 7.03.124]
A) 7.21

Q) Specify the recorded pEC50 for O=C(Cn1nc(-c2ccc(F)cc2)nc1-c1ccc(F)cc1)N1CCC(C(O)c2ccccc2)CC1 (stereo not drawn) [Example 7.03.004.] , system: human recombinant mGluR5 (Homo sapiens).
A) 5.97

====

Biological target: human recombinant mGluR5 (Homo sapiens, UniProt P41594)
Construct: expressed in transfected cells; host or cells: HEK 293 cell line, cultured with tetracycline, hygromycin and geneticin; tetracycline is withdrawn 3-7 days before the assay
Assay: positive modulation of mGluR5, calcium based FLIPR assay
Format: cell-based
Settings: EC50 of the modulation; HEK 293 cell line expressing human recombinant mGluR5; peak height of Ca fluorescence signal after glutamate at approx. 5% basal stimulation; read-out: EC50
EC50: recorded values
Could you give me the number in nM? Just the number is fine.

# annotated cases, reported EC50 shown
{"compound": "COc1ccc(-c2nc(-c3ccc(OC)cc3)n(CC(=O)N3Cc4nc(C)oc4C3)n2)cc1", "target-entity": "human recombinant mGluR5 (Homo sapiens, UniProt P41594)", "recorded-measurement": 104}
{"compound": "Cc1nc2c(s1)CN(C(=O)Cn1nc(-c3ccc(F)cc3)nc1-c1ccc(F)cc1)C2", "target-entity": "human recombinant mGluR5 (Homo sapiens, UniProt P41594)", "recorded-measurement": 278}
{"compound": "CCCc1nc(-c2ccc(F)c(C)c2)nn1CC(=O)N1Cc2nc(C)sc2C1", "target-entity": "human recombinant mGluR5 (Homo sapiens, UniProt P41594)", "recorded-measurement": 1170}
{"compound": "O=C(c1ccccc1)C1CCN(C(=O)Cn2nc(-c3ccc(F)cc3)nc2-c2ccc(F)cc2)CC1", "target-entity": "human recombinant mGluR5 (Homo sapiens, UniProt P41594)", "recorded-measurement": 441}

Q) Identify the reported EC50 for the following entry. "O=C(Cn1nc(-c2ccc(F)cc2)nc1-c1ccc(F)cc1)N1Cc2cccnc2C1"
A) 626

Q) Quickly give me recorded EC50 for "O=C(Cn1nc(-c2ccc(F)cc2)nc1-c1ccc(F)cc1)N1CCc2cc(C(F)(F)F)ccc2C1"
A) 992

Q) Fill in EC50 for record CCC(C)c1nc(-c2ccc(F)c(C)c2)nn1CC(=O)N1CCc2nc(N)sc2CC1 (stereo not drawn)
A) 644

Q) Give EC50 for "Cc1nc2c(s1)CCN(C(=O)Cn1nc(-c3ccc(F)c(C)c3)nc1C)CC2"
A) 647

Q) Give EC50 for "O=C(Cn1nc(-c2ccc(F)cc2)nc1-c1ccc(F)cc1)N1CCC(c2ncc(Cl)cn2)CC1"
A) 216

Q) Could you please provide reported EC50 for O=C(Cn1nc(-c2ccc(F)cc2)nc1-c1ccc(F)cc1)N1CCc2ncsc2CC1 [Example 7.03.011.] ? Thanks!
A) 453

Q) Name the recorded EC50 of the item "COc1ccc2c(n1)CCN(C(=O)Cn1nc(-c3ccc(F)c(C)c3)nc1-c1ccccc1)CC2" in your answer.
A) 105
